Catalogue of compounds with associated growth
- System: UACC-257 melanoma
- Test Summary: NCI-60 one-dose screen, 48 h (100 = growth as untreated, 0 = no growth, -100 = all killed)
- Condition: 10 µM unless noted
This is part of a sample that, as a whole, favours compounds with a hit. Of some 83,000 tested, about 20% had one in any assay.
State just the number; it will be interpreted in %.

# value of growth, UACC-257 melanoma, item "COc1cc2oc(-c3ccc(NC(=O)c4ccccc4)cc3)cc(=O)c2c(OC)c1OC" = 97.3

# value of growth, UACC-257 melanoma, item "Clc1ccc(I)c2ccccc12" = 101

# value of growth, UACC-257 melanoma, item "CC(C)(CNC1CCCCC1)OC(=O)c1ccccc1" = 110

Below: the item to evaluate.
# value of growth, UACC-257 melanoma, item "CC1=NN(c2cccc(Cl)c2)C(=O)/C1=C\c1cn(-c2nc(N3CCOCC3)nc(N3CCOCC3)n2)c2ccccc12" = 106

* * *

- Tested on: SN12C renal
- Test Summary: NCI-60 one-dose screen, 48 h
- Condition: 10 µM unless noted
Compounds without any hit were thinned out: in the full panel of roughly 83,000, 20% have a hit. The source made the active and inactive calls. How the source made its calls: active means growth percent below 10; inactive means the rest.
Result category, one only: 1 = active, -1 = inactive

Below are worked cases with known answers.
Incoming: Lab log entry: "COc1ccc(CN2C(=O)/C(=C\C(=O)c3ccc(OCCN4CCCCC4)cc3)c3ccccc32)cc1" — outcome as called in the assay?
Outgoing: -1

Incoming: Lab log entry: "Nc1ccc(S(=O)(=O)c2ccc(NO)cc2)cc1" — outcome as called in the assay?
Outgoing: -1

Incoming: Lab log entry: "CCCCCCCCCCCCCCCC[n+]1cccc(C#N)c1" — outcome as called in the assay?
Outgoing: -1

Incoming: Lab log entry: "CCOc1ccc(N(C)c2ccc(/C=C/C3=[N+](C)c4ccccc4C3(C)C)cc2)cc1" — outcome as called in the assay?
Outgoing: 1

Incoming: Lab log entry: O=P(OCCCl)(OCCCl)C(O)c1ccccc1Cl (stereo not given) — outcome as called in the assay?
Outgoing: -1

Incoming: Lab log entry: "COc1ccc(-c2cc(C#N)c(NNC(C)=O)[nH]2)cc1" — outcome as called in the assay?
Outgoing: -1

Incoming: Lab log entry: "CN1C(=O)C(=Cc2coc3ccc(Br)cc3c2=O)C(=O)N(C)C1=O" — outcome as called in the assay?
Outgoing: -1

Incoming: Lab log entry: "O=C(Nc1ccc(-n2cc(-c3ccncc3)c(-c3ccc(Cl)c(O)c3)n2)cc1)c1ccc(Cl)c(C(F)(F)F)c1" — outcome as called in the assay?
Outgoing: -1

Next:
Incoming: Lab log entry: "O=C(Nc1cccc(Cn2c(=O)[nH]c3ccc(Oc4ncccn4)cc3c2=O)c1)c1cc(Cl)cc(Cl)c1" — outcome as called in the assay?
Outgoing: -1

Incoming: Lab log entry: "O=Nc1c(-c2c(O)[nH]c3cc(Br)ccc23)[nH]c2ccccc12" — outcome as called in the assay?
Outgoing: -1

* * *

- System: T-47D breast
- Test Summary: NCI-60 one-dose screen, 48 h
- Condition: 10 µM unless noted
The panel holds about 83,000 compounds, 20% with a hit somewhere; the sample as a whole holds those more often. Active and inactive are the calls of the source. The calls were made as follows: active = growth percent below 10; inactive = the rest.
Result category, one only: active, inactive

Incoming: Lab log entry: "O=C(Nc1ccc(-n2cc(-c3ccncc3)c(-c3ccc(Cl)c(O)c3)n2)cc1)c1ccc(Cl)c(Cl)c1" — outcome as called in the assay?
Outgoing: inactive

Incoming: Lab log entry: "COC(=O)c1c[n+]([O-])ccc1OC" — outcome as called in the assay?
Outgoing: inactive

Incoming: Lab log entry: "COc1ccc(-c2cn3ccnc3c(-c3ccc4ncn(C5CCCCC5)c4c3)n2)cc1" — outcome as called in the assay?
Outgoing: active

Incoming: Lab log entry: "Ic1ccc(SSc2ccc(I)cc2)cc1" — outcome as called in the assay?
Outgoing: inactive

Incoming: Lab log entry: "CCCC(=O)Nc1ccccc1C(=O)O" — outcome as called in the assay?
Outgoing: inactive

Incoming: Lab log entry: "Nc1cc(N)c2nc(-c3ccccc3)c(NCCc3ccc(Cl)c(Cl)c3)nc2c1" — outcome as called in the assay?
Outgoing: active

Switching to the query record.
Incoming: Lab log entry: "Cc1nc(N)sc1C(=O)NCCO" — outcome as called in the assay?
Outgoing: inactive
